- assayInfo: qHTS assay to identify small molecule agonists of the RXR signaling pathway - cell viability counter screen (AID 1159529); note: nearly all actives have a fitted effect of over 50% in size
- conditionInfo: RXR-alpha-bla HEK293T viability, CellTiter-Glo, 16 h; series mostly up to 76.8 µM
Records with an inconclusive call do not appear. The source made the active and inactive calls. Calls come from the whole dose curve; as a rule, active = well fitted cell-killing curve with a large enough effect in the repeat runs; inconclusive = weak or mixed curves, or effect the other way; inactive = no such curve, though single readings can be large or run the other way.
Entry note: the call must match one of active, inactive

Tell me the recorded outcome of this test for C[Si](Cl)(c1ccccc1)c1ccccc1 .
inactive

Tell me the recorded outcome of this test for OC12N=C(c3ccccc3)SC1Cc1cc(Cl)ccc12 (configuration not stated) .
active

Tell me the recorded outcome of this test for COc1ccc(NC(=O)CC(C)=O)cc1 .
inactive

Tell me the recorded outcome of this test for CCN1C(=O)c2ccccc2C1Nc1ccc(OCCN2CCCCC2)cc1 (configuration not stated) .
inactive

Tell me the recorded outcome of this test for C=C(C)c1cccc(C(=C)C)c1 .
inactive

Tell me the recorded outcome of this test for O=C(O)c1cc(-c2ccc(F)cc2F)ccc1O .
inactive

Tell me the recorded outcome of this test for Cc1cc(-n2nc3ccc(Cl)cc3n2)c(O)c(C(C)(C)C)c1 .
inactive

Tell me the recorded outcome of this test for Oc1ccccc1O .
inactive

Tell me the recorded outcome of this test for CCCCCC(C)OC(=O)COc1ccc(Cl)c2cccnc12 (configuration not stated) .
active

Tell me the recorded outcome of this test for Cc1ccc(O)c(N)c1 .
inactive

Tell me the recorded outcome of this test for CC1(C)CC(O)CC(C)(C)N1 .
inactive

Tell me the recorded outcome of this test for CC[N+](CC)(CC)CCOC(=O)C(C1CCCC1)C1CCCC1 .
inactive

###

- assayInfo: qHTS assay to identify small molecule antagonists of the estrogen receptor alpha (ER-alpha) signaling pathway using the BG1 cell line (AID 743080);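 note: BG1 cells stimulated with 17beta-estradiol alongside compound; nearly all actives have a fitted effect of over 25% in size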
- conditionInfo: BG1Luc4E2 ERE-luciferase antagonist mode, luminescence; series mostly up to 70.3 µM
Results filed as inconclusive are left out. Calls of active or inactive are those of the source. Calls come from the whole dose curve.
Entry note: the call must match one of active, inactive

Tell me the recorded outcome of this test for O=C1CCCCCCCCCCCCCCCO1 .
inactive

Tell me the recorded outcome of this test for Cc1cccc(C(=O)O)c1O .
inactive

Tell me the recorded outcome of this test for [Cl][Pt-2]([Cl])([Cl])[Cl] .
inactive

Tell me the recorded outcome of this test for NC(=O)c1cccc([N+](=O)[O-])c1 .
inactive

Tell me the recorded outcome of this test for Nc1nc2c(ncn2COCCO)c(=O)[nH]1 .
inactive

Tell me the recorded outcome of this test for CCN(CCN)c1cccc(C)c1 .
inactive

Tell me the recorded outcome of this test for Cc1c(C)c2c(c(C)c1O)CC[C@@](C)(CCC[C@H](C)CCC[C@H](C)CCCC(C)C)O2 .
inactive

Tell me the recorded outcome of this test for CC(C)NC[C@@H](O)COc1ccc(CC(N)=O)cc1 .
inactive

Tell me the recorded outcome of this test for CN(C)Cc1ccccc1O .
inactive

Tell me the recorded outcome of this test for CCC(=O)OC(=O)CC .
inactive

Tell me the recorded outcome of this test for CCCCCCCCCCOC(=O)c1ccccc1C(=O)OCCCCCCCC .
inactive

Tell me the recorded outcome of this test for C#C[C@]1(OC(C)=O)CC[C@H]2[C@@H]3CCC4=C[C@@H](OC(C)=O)CC[C@@H]4[C@H]3CC[C@@]21C .
active

Tell me the recorded outcome of this test for Cc1c(C)c2c(c(C)c1OC(=O)c1cccnc1)CC[C@@](C)(CCC[C@H](C)CCC[C@H](C)CCCC(C)C)O2 .
inactive

Tell me the recorded outcome of this test for CCCCOC(=O)CO .
inactive

Tell me the recorded outcome of this test for O=C(O)[C@H](O)[C@@H](O)[C@H](O[C@@H]1O[C@H](CO)[C@H](O)[C@H](O)[C@H]1O)[C@H](O)CO .
inactive

Tell me the recorded outcome of this test for O=C1c2ccccc2C(=O)N1SC1CCCCC1 .
inactive

Tell me the recorded outcome of this test for O=C(O)Cc1ccccc1Nc1c(Cl)cccc1Cl .
inactive

Tell me the recorded outcome of this test for CC(=O)OCC=C(C)C .
inactive

Tell me the recorded outcome of this test for FC(F)(F)c1cccc(Cl)c1 .
inactive

Tell me the recorded outcome of this test for O=C(/C=C/c1ccccc1)OC/C=C/c1ccccc1 .
inactive

Tell me the recorded outcome of this test for CCCCCCCCCCCCCC[N+](C)(C)Cc1ccccc1 .
active

Tell me the recorded outcome of this test for OC1CCC(C2CCCCC2)CC1 (configuration not stated) .
inactive

Tell me the recorded outcome of this test for O=C(Oc1ccccc1)Oc1ccccc1 .
inactive

Tell me the recorded outcome of this test for CC(C(=O)O)c1ccc2c(c1)[nH]c1ccc(Cl)cc12 (configuration not stated) .
inactive

Tell me the recorded outcome of this test for CCCCCC(C)OC(=O)COc1ccc(Cl)c2cccnc12 (configuration not stated) .
inactive

Tell me the recorded outcome of this test for CCCCCc1ccc(Cl)cc1 .
inactive

Tell me the recorded outcome of this test for CCCCNS(=O)(=O)c1ccc(C)cc1 .
inactive

Tell me the recorded outcome of this test for COC(=O)Nc1nc2ccc(C(=O)c3ccccc3)cc2[nH]1 .
inactive

Tell me the recorded outcome of this test for C=Cc1ccccc1C=C .
inactive

Tell me the recorded outcome of this test for C#C[C@]1(O)CC[C@H]2[C@@H]3[C@H](C)CC4=C(CCC(=O)C4)[C@H]3CC[C@@]21C .
inactive

Tell me the recorded outcome of this test for CCCCC(CC)CN1CN(CC(CC)CCCC)CC(C)(N)C1 (configuration not stated) .
inactive

Tell me the recorded outcome of this test for CCCCC(CC)COC(=O)CCCCC(=O)OCc1ccccc1 (configuration not stated) .
inactive

Tell me the recorded outcome of this test for Cl[Si](Cl)(c1ccccc1)c1ccccc1 .
inactive

Tell me the recorded outcome of this test for O=C(O)c1cc(-c2ccc(F)cc2F)ccc1O .
inactive

Tell me the recorded outcome of this test for ClCCl .
inactive

Tell me the recorded outcome of this test for CCCCCC/C=C\CCCCCCCC(=O)O .
inactive

Tell me the recorded outcome of this test for CCc1ccc(Br)cc1 .
inactive

Tell me the recorded outcome of this test for CC(CO)Oc1ccccc1 (configuration not stated) .
inactive

Tell me the recorded outcome of this test for C=CC(C)(CCC=C(C)C)OC=O (configuration not stated) .
inactive

Tell me the recorded outcome of this test for CCCCCCCC .
inactive

Tell me the recorded outcome of this test for Cc1ccc(C(C)C)cc2c(C)ccc1-2 .
inactive

Tell me the recorded outcome of this test for CCC(C)n1ncn(-c2ccc(N3CCN(c4ccc(OC[C@H]5CO[C@](Cn6cncn6)(c6ccc(Cl)cc6Cl)O5)cc4)CC3)cc2)c1=O (some centres not stated) .
active

Hello, the source for this data is PubChem BioAssay (Tox21), in case you need it.
